# key: entry, value: IC50
- system under test: UniProtKB P21589
- Sequence (P21589 27-549): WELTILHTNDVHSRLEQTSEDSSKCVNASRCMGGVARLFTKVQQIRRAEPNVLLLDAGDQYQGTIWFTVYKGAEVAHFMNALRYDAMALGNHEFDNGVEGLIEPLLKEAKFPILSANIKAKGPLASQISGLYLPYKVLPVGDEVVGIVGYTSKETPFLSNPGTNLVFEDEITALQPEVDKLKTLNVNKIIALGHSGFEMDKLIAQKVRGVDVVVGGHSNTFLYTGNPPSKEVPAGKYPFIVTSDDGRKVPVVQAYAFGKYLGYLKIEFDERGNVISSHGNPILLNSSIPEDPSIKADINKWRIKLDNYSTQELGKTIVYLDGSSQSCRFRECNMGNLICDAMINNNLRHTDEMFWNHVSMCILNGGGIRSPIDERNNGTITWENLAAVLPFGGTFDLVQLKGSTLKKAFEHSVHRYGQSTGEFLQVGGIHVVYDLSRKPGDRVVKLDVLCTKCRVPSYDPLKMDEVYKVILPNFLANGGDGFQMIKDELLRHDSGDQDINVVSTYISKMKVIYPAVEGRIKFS
- experimental protocol: CD73 Biochemical IC50 Assay
- measurement parameters: CD73 enzyme (R&D system) final 0.3 nM, final AMP 15 uM, 60 mins incubation, Rapid fire

| substance smiles | IC50 (nM) |
| --- | --- |
| Cc1nc(-c2c[nH]c(=O)[nH]c2=O)cc(N2C[C@H](OC(=O)NC3(C(F)(F)F)CC3)C(F)(F)C2)n1 | 13 |
| Cc1nc(-c2c[nH]c(=O)[nH]c2=O)cc(N2C[C@H](Oc3ccncc3)C(F)(F)C2)n1 | 8.7 |
| Cc1cc(O[C@H]2CN(c3cc(-c4c[nH]c(=O)[nH]c4=O)nc(C)n3)CC2(F)F)ccn1 | 7.67 |
| Cc1nc(-c2c[nH]c(=O)[nH]c2=O)cc(N2C[C@H](Oc3cc4c(cnn4CC(F)(F)F)cc3F)C(F)(F)C2)n1 | 14.4 |
| O=c1[nH]cc(-c2cc(N3C[C@H](Oc4cc5c(cn4)cnn5CC(F)(F)F)C(F)(F)C3)nc(C(F)(F)F)n2)c(=O)[nH]1 | 7.14 |
| Cc1nc(-c2c[nH]c(=O)[nH]c2=O)cc(N2C[C@H](Oc3cc(C4(C(F)(F)F)CC4)ccn3)C(F)(F)C2)n1 | 4 |
| Cc1nc(-c2c[nH]c(=O)[nH]c2=O)cc(N2C[C@H](Oc3ccnc(C(F)F)c3)C(F)(F)C2)n1 | 4.97 |

Numbers sourced from patent US20240116928A1.
